Every entry's value here was drawn from ChEMBL document CHEMBL1141882.

# tgt: cAMP-dependent protein kinase (PKA) (Homo sapiens) (UniProt P22694+P17612+P22612)
# protocol.text: Inhibition of human cAMP-dependent protein kinase (PKA)
# Assay type: protein assay
# Parameters: concentration or dose not given beside the values
# conditions.used: concentration not given here
property.measured: inhibition (%)
Please give a number only; it is taken to be in %.

[[record]]
compound = "CSc1ccc(-c2nc3c(Sc4ccccc4)ncnc3n2C)cc1"
property_measured = "inhibition"
numeric_readout = 0

[[record]]
compound = "Fc1ccc(Cn2cnc3c(Sc4ccccc4)ncnc32)cc1"
property_measured = "inhibition"
numeric_readout = 0

[[record]]
compound = "Cn1cnc2c(SCc3ccccc3)ncnc21"
property_measured = "inhibition"
numeric_readout = 0


// map CSc1ccc(-c2nc3c(Sc4ccc(F)cc4)ncnc3n2C)cc1 to recorded inhibition (system: cAMP-dependent protein kinase (PKA) (Homo sapiens) (UniProt P22694+P17612+P22612))
0

Form entry - test system: cAMP-dependent protein kinase (PKA) (Homo sapiens) (UniProt P22694+P17612+P22612); read-out: inhibition; compound: c1ccc(Cc2[nH]cnc3ncnc2-3)cc1
7

Please tell me: inhibition of Cn1c(-c2ccc([S+](C)[O-])cc2)nc2c(Sc3ccc(F)cc3)ncnc21 (stereo unspecified) , system cAMP-dependent protein kinase (PKA) (Homo sapiens) (UniProt P22694+P17612+P22612)?
4
